These entries and their values trace back to paper PMC12799362.

Record form. Attribute: remaining activity at 500 µM. Fill in for each entry.
Biological target: poly(ADP-ribose) polymerase 1 (PARP1) (Homo sapiens, UniProt P09874)
Construct: made in house; host or cells: insect cells (baculovirus expression system)
Sequence (P09874 whole entry): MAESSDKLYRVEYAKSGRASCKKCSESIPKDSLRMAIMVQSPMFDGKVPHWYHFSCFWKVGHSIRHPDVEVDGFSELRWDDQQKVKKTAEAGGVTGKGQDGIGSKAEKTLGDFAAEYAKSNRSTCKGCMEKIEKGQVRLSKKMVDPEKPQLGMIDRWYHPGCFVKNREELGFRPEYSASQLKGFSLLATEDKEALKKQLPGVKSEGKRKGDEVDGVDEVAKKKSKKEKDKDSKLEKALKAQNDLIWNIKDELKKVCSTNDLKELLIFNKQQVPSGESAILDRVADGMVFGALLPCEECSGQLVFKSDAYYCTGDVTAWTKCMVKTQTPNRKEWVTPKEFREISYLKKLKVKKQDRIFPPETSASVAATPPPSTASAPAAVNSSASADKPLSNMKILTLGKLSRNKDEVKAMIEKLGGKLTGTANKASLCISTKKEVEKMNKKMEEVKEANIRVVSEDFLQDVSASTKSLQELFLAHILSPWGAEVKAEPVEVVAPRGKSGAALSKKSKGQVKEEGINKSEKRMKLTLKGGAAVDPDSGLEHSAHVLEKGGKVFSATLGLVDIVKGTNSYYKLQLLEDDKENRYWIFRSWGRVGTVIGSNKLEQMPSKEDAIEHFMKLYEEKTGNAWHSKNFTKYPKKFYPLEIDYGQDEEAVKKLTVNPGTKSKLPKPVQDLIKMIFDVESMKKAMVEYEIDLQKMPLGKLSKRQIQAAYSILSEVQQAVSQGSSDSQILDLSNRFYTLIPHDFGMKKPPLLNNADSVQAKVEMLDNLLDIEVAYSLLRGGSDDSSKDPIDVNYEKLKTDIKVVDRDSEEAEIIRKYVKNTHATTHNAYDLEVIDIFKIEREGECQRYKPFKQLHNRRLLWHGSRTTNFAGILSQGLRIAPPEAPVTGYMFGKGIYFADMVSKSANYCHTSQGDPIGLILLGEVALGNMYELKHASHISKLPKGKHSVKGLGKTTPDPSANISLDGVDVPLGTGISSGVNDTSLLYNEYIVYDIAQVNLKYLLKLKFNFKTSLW
Test: PARP1 auto-poly(ADP-ribosyl)ation with [32P]-NAD+
Type: biochemical
Details: compound 500 μM, PARP1 200 nM, 0.3 mM [32P]-NAD+, 2 min, 37 °C; mean ± SD; read-out: PARP1 % of residual activity (500 μM)
Reply numerically in %, unit not repeated.

Inquiry: Look up remaining activity at 500 µM for this compound: CN1CCN(c2ccc3nc(-c4ccc5nc(-c6ccc7nc(CNC(=O)CC(=O)NCc8nc9ccc(-c%10nc%11ccc(-c%12nc%13ccc(N%14CCN(C)CC%14)cc%13[nH]%12)cc%11[nH]%10)cc9[nH]8)[nH]c7c6)[nH]c5c4)[nH]c3c2)CC1 [DB3(1)]
Reply text: 55

Inquiry: Query: remaining activity at 500 µM; subject: CN1CCN(c2ccc3nc(-c4ccc5nc(-c6ccc7nc(CNC(=O)CCCN8CCN(CCCC(=O)NCc9nc%10ccc(-c%11nc%12ccc(-c%13nc%14ccc(N%15CCN(C)CC%15)cc%14[nH]%13)cc%12[nH]%11)cc%10[nH]9)CC8)[nH]c7c6)[nH]c5c4)[nH]c3c2)CC1 [DB3P(3)]
Reply text: 47
